Overview of reported pKd across a group of binders:
molecular target: T1, human ILT3 (as used in the affinity measurements) (human, UniProt Q8NHJ6 22-259, limits assumed); test: column 'ILT3 Affinity (nM)'; method and format not stated
T1 construct: also called immunoglobulin-like transcript 3
Recall that pKd is obtained by taking minus log10 of the concentration measured in molar.

Some solved cases for reference:
{"Binder": "53F10 anti-ILT3 antibody (antibody, V domains shown) VH: EVQVVESGGGLVKPGGSLKLSCAASGFTFSDYGMHWVRQAPEKGLEWVAYISTGIITVYYADTVKGRFTMSRDNAKNTLFLQMTSLRSEDTAIYYCARADGRGAMDYWGQGTSVIVSS VL: DIQMTQTTSSLSASLGDRVTISCRASQDISNFLNWYQQKPDGTVTLLIYYTSRLHSGVPSRFSGSGSGTDYSLTISNLEQEDFATYFCQQGNTLPWTFGGGTKLEIK", "Observed result": 9.60}
{"Binder": "48A6 anti-ILT3 antibody (antibody, V domains shown) VH: EVQLVESGGDLMKPGGSLKLSCAASGFTFSSYGMSWVRQTPDKRLEWVATISSGGTYTFYPDSVKGRFTISRDNAKNTLYLQMSSLKSEDTAMYYCARRGWLLHYYAMDYWGQGTSVTVSS VL: NIVLTQSPASLAVSLGQRATISCRPSESVDSFGNSFMHWFQQKPGQPPKLLIYLSSKLESGVPARFSGSGSRTDFTLTIDPVEADDAATYYCQQHNEDPFTFGSGTKLEIK", "Observed result": 10.10}

Next binder, pKd to be filled in.
Please fill in: pKd reported for 16C5 anti-ILT3 antibody (antibody, V domains shown) VH: EVQLQQSGPELVKPGASVKISCKASGYTFTDYNMDWVKQSHGKSLEWIGYIYPSNGGTGYNQKFKSKATLTVDKSSNTAYMELHSLTSEDSAVYYCARVPYYDYLYYYAMDYWGQGTSVTVSS VL: QIVLSQSPAILSASPGEKVTMACRASSSVSFMHWYQQKPGSSPQPWIYATSNLASGVPARFSGSGSGTSYSLTISRVEAEDAATYYCQQWSTNPYMYTFGGGTKLEIK = 9.15
